test system: Wistar male rats; assay: Diuretic activity; assay type: in vivo; conditions: Rattus norvegicus, po; 25 mg/kg orally, urine taken for 6 hours; relative value for control (100); read-out: Excretion of K^+
QUANTITY NAME: response vs control in vivo at 25 mg/kg

Check out these entries, answers already filled in.
- SMILES INPUT: "CCCn1c(=O)n2c(-c3cccnc3)nnc2c2[nH]cnc21"
  response vs control in vivo at 25 mg/kg: "129%"
- SMILES INPUT: "CCCn1c(=O)n2c(-c3ccc(Cl)cc3)nnc2c2c1ncn2C"
  response vs control in vivo at 25 mg/kg: "129%"
- SMILES INPUT: "CCCn1c(=O)n2c(-c3ccc(OC)cc3)nnc2c2c1ncn2C"
  response vs control in vivo at 25 mg/kg: "139%"
- SMILES INPUT: "CCCn1c(=O)n2c(C)nnc2c2[nH]cnc21"
  response vs control in vivo at 25 mg/kg: "119%"
- SMILES INPUT: "CCCn1c(=O)n2c(-c3ccccc3OC)nnc2c2c1ncn2C"
  response vs control in vivo at 25 mg/kg: "122%"

Query (compound): CCCn1c(=O)n2c(-c3ccccc3Cl)nnc2c2c1ncn2C ; field requested: response vs control in vivo at 25 mg/kg
109%

Please do the same for CCCn1c(=O)n2c(-c3ccncc3)nnc2c2c1ncn2C as well.
196%

And CCCn1c(=O)n2c(C)nnc2c2c1ncn2C ?
168%

For CCCn1c(=O)n2c(-c3cccc(OC)c3)nnc2c2c1ncn2C then?
122%

// query: CCCn1c(=O)n2c(-c3ccncc3)nnc2c2[nH]cnc21
118%

====

test system: male dd-mice; assay: Acute toxicity; assay type: in vivo; conditions: Minimum lethal dose, oral, mortality observed for seven days
Listed compounds paired with reported MLD

# MLD lookup, item CCCCn1c(=O)n2c(-c3ccncc3)nnc2c2[nH]cnc21
>300 mg/kg

Also CCCn1c(=O)n2c(-c3ccc(OC)c(OC)c3)nnc2c2c1ncn2C ?
>300 mg/kg

Same question for CCCn1c(=O)n2c(-c3cccc(Cl)c3)nnc2c2c1ncn2C please.
>300 mg/kg

Try this compound too: CCCn1c(=O)n2c(-c3cccc(OC)c3)nnc2c2c1ncn2C
>300 mg/kg

Similarly, CCCn1c(=O)n2c(C)nnc2c2[nH]c(C3CCCC3)nc21 ?
>300 mg/kg

Let us now turn to CCCn1c(=O)n2c(-c3ccccc3Cl)nnc2c2c1ncn2C
300 mg/kg

====

system: male dd-mice; test: Acute toxicity; assay type: in vivo; conditions: Minimum lethal dose, oral, mortality observed for seven days
QUANTITY NAME: MLD

- COMPOUND: "Cn1cnc2c1c1nnc(-c3ccccc3)n1c(=O)n2Cc1ccccc1 [Compound 28]"
  QUANTITY NAME: "MLD"
  OBSERVED RESULT: ">300 mg/kg"
- COMPOUND: "CCCn1c(=O)n2c(-c3cccs3)nnc2c2[nH]cnc21 [Compound 33]"
  QUANTITY NAME: "MLD"
  OBSERVED RESULT: ">300 mg/kg"
- COMPOUND: "CCCn1cnc2c1c1nnc(-c3ccncc3)n1c(=O)n2CCC [Compound 40Sa]"
  QUANTITY NAME: "MLD"
  OBSERVED RESULT: "100 mg/kg"
- COMPOUND: "CCCn1c(=O)n2c(-c3ccoc3C)nnc2c2c1ncn2C [Compound 6]"
  QUANTITY NAME: "MLD"
  OBSERVED RESULT: "200 mg/kg"

I would be grateful if you could share the reported MLD for CCCn1c(=O)n2c(-c3cc(Cl)ccc3Cl)nnc2c2c1ncn2C [Compound 19] .
>300 mg/kg

Another compound to look at: CCCn1c(=O)n2c(-c3ccc([N+](=O)[O-])cc3)nnc2c2c1ncn2C [Compound 16]
>300 mg/kg

Also, CCCn1c(=O)n2c(-c3ccncc3)nnc2c2c1ncn2Cc1ccccc1 [Compound 39] please.
>300 mg/kg

Follow-up entry: CCCn1c(=O)n2c(=S)[nH]nc2c2c1ncn2C [Compound 46]
>300 mg/kg

Please give the result for CCCn1c(=O)n2c(-c3ccc(OC)cc3)nnc2c2c1ncn2C [Compound 9] too.
>300 mg/kg

Likewise for CCCn1c(=O)n2c(C)nnc2c2[nH]cnc21 [Compound 25] ?
100 mg/kg

Okay, and CCCn1c(=O)n2c(-c3ccccc3N)nnc2c2c1ncn2C [Compound 13] ?
>300 mg/kg

Would you mind doing CCCn1c(=O)n2c(-c3ccc(Cl)cc3)nnc2c2c1ncn2C [Compound 12] as well?
>300 mg/kg

Entry to check: CCCn1c(=O)n2c(=O)n(CC)nc2c2c1ncn2C [Compound 48]
>300 mg/kg

Continue with CCCn1c(=O)n2c(-c3ccccc3)nnc2c2c1ncn2C [Compound 1]
100 mg/kg

Could you do the same for CCCn1c(=O)n2c(C)nnc2c2c1ncn2C [Compound 24] , please?
300 mg/kg

And what about the compound CCCn1c(=O)n2c(-c3ccc(Cl)c(Cl)c3)nnc2c2c1ncn2C [Compound 20] ?
>300 mg/kg

Try this compound too: CCCn1c(=O)n2c(-c3ccco3)nnc2c2c1ncn2C [Compound 5]
>300 mg/kg

What do we get for CCCn1c(=O)n2c(-c3ccccc3)nnc2c2[nH]c(C3CCCC3)nc21 [Compound 26] ?
>300 mg/kg

Record: CCCn1c(=O)n2c(-c3cccs3)nnc2c2c1ncn2C [Compound 2]
300 mg/kg

What do you have for CCCn1cnc2c1c1n[nH]c(=O)n1c(=O)n2CCC [Compound 44] ?
>300 mg/kg

Also CCCn1c(=O)n2c(-c3ccc(C(=O)OC)cc3)nnc2c2c1ncn2C [Compound 22] , if possible.
>300 mg/kg

And the next one, CCCn1c(=O)n2c(-c3ccc(C(=O)O)cc3)nnc2c2c1ncn2C [Compound 23] ?
>300 mg/kg

Now the same for CCCn1c(=O)n2c(-c3ccc(F)cc3)nnc2c2c1ncn2C [Compound 17]
>300 mg/kg

Subsequent entry: CCCn1c(=O)n2c(-c3ccncc3)nnc2c2c1ncn2C [Compound 3]
100 mg/kg

====

tested on: Wistar male rats; assay: Diuretic activity; type: in vivo; settings: Rattus norvegicus, po; 25 mg/kg orally, urine taken for 6 hours; relative value for control (100); read-out: Excretion of K^+
// reported response vs control in vivo at 25 mg/kg per item
State the answer as a number, implicitly in %.

Please review the following examples before continuing.
- COMPOUND: "CCCn1cnc2c1c1nnc(-c3ccncc3)n1c(=O)n2CCC [Compound 40Sa]"
  QUANTITY NAME: "response vs control in vivo at 25 mg/kg"
  OBSERVED RESULT: 136
- COMPOUND: "CCCn1c(=O)n2c(-c3ccncc3)nnc2c2c1ncn2Cc1ccccc1 [Compound 39]"
  QUANTITY NAME: "response vs control in vivo at 25 mg/kg"
  OBSERVED RESULT: 145
- COMPOUND: "CCCn1c(=O)n2c(-c3ccccc3)nnc2c2c1ncn2C [Compound 1]"
  QUANTITY NAME: "response vs control in vivo at 25 mg/kg"
  OBSERVED RESULT: 87

Query: response vs control in vivo at 25 mg/kg; subject: CCCn1c(=O)n2c(-c3ccoc3C)nnc2c2c1ncn2C [Compound 6]
146

Another compound to look at: CCCn1c(=O)n2c(-c3cccnc3)nnc2c2c1ncn2C [Compound 4]
134

What about CCCn1c(=O)n2c(-c3ccc(F)cc3)nnc2c2c1ncn2C [Compound 17] ?
134

====

system: male dd-mice; experiment: Acute toxicity; format: in vivo; conditions: Minimum lethal dose, oral, mortality observed for seven days
QUANTITY NAME: MLD

- SMILES INPUT: "CCCn1c(=O)n2c(-c3ccccc3)nnc2c2[nH]cnc21"
  MEASURED ON: "male dd-mice"
  MLD: "300 mg/kg"
- SMILES INPUT: "CCCn1c(=O)n2c(-c3ccncc3)nnc2c2[nH]cnc21"
  MEASURED ON: "male dd-mice"
  MLD: ">300 mg/kg"
- SMILES INPUT: "CCCCn1c(=O)n2c(=O)[nH]nc2c2c1ncn2C"
  MEASURED ON: "male dd-mice"
  MLD: ">300 mg/kg"
- SMILES INPUT: "CCCn1c(=O)n2c(=O)[nH]nc2c2c1ncn2C"
  MEASURED ON: "male dd-mice"
  MLD: ">300 mg/kg"
- SMILES INPUT: "CCCn1c(=O)n2c(-c3ccc(C)cc3)nnc2c2c1ncn2C"
  MEASURED ON: "male dd-mice"
  MLD: ">300 mg/kg"

# get_value(readout='MLD', item= CCCn1c(=O)n2c(-c3ccccc3OC)nnc2c2c1ncn2C )
300 mg/kg

Entry to check: CCCn1c(=O)n2c(-c3ccc(C(F)(F)F)cc3)nnc2c2c1ncn2C
>300 mg/kg

Field entry: Cn1cnc2c1c1n[nH]c(=O)n1c(=O)n2Cc1ccccc1
>300 mg/kg

Follow-up entry: CCCn1c(=O)n2cnnc2c2c1ncn2C
300 mg/kg

Likewise for CCCn1c(=O)n2c(-c3cccnc3)nnc2c2c1ncn2C ?
200 mg/kg

Quick one: CCCn1c(=O)n2c(=O)[nH]nc2c2[nH]c(C3CCCC3)nc21
>300 mg/kg

Then Cn1cnc2c1c1nnc(-c3ccccc3)n1c(=O)n2-c1ccccc1 ?
>300 mg/kg

Field entry: CCCn1c(=O)n2c(-c3ccc(N(C)C)cc3)nnc2c2c1ncn2C
>300 mg/kg

What do you get for Cc1nnc2c3[nH]cnc3n(Cc3ccccc3)c(=O)n12 ?
>300 mg/kg
